ASSAY_TARGET: Factor X, P00742
Sequence (P00742 whole entry, looked up): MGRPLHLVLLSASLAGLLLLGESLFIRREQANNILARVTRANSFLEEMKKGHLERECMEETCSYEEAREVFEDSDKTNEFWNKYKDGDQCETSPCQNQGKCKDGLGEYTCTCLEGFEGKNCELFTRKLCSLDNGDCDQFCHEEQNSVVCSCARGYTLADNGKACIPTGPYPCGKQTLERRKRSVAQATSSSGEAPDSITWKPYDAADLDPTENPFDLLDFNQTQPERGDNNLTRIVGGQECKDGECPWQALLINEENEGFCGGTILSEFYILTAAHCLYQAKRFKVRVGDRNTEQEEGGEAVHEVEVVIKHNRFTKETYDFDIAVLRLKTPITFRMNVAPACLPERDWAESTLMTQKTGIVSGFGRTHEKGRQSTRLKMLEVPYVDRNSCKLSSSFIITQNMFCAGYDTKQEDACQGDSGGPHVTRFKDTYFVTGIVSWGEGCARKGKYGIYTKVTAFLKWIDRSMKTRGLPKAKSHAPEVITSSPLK
METRIC: kcat/KM

Q. Given FIXa-Y155F/K247N/N249S/R338E/T343R/R403E/E410N (protein) chain 1: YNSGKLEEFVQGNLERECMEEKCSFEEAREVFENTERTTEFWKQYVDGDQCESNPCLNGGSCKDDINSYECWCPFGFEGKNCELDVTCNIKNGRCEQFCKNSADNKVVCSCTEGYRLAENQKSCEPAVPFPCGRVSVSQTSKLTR chain 2: VVGGEDAKPGQFPWQVVLNGKVDAFCGGSIVNEKWIVTAAHCVETGVKITVVAGEHNIEETEHTEQNRSVIRIIPHHNYNAAINKYNHDIALLELDEPLVLNSYVTPICIADKEYTNIFLKFGSGYVSGWGRVFHKGRSALVLQYLRVPLVDRATCLESTKFRIYNNMFCAGFHEGGRDSCQGDSGGPHVTEVEGTSFLTGIISWGEECAMKGKYGIYTKVSEYVNWIKNKTKLT , state its recorded kcat/KM.
A. 3.7e+08 M⁻¹ s⁻¹
